Property: Fab Tm; scope: individual molecules
assayMethodText: Thermal stability by differential scanning calorimetry (DSC)
Format: physicochemical
measurementParameters: 0.4 mg/mL in PBS, scan 20° C. to 100° C. at 60° C./hr
metric: Fab Tm (°C)

- v29451: humanized anti-NaPi2b IgG1/kappa antibody H2L3; VH SEQ ID NO:25, VL SEQ ID NO:30 (antibody, V domains shown, v29451, v29455, v29459 VH (H2); v29449, v29450, v29451, v29452 VL (L3)) VH: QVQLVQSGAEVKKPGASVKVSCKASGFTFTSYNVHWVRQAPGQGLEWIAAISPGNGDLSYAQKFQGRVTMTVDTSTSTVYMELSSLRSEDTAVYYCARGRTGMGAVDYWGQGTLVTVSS VL: DVQMTQSPSSLSASVGDRVTITCRASQDVYSYLNWYQQKPGKAVKLLIYYTSRLQSGVPSRFSGSGSGTDYTLTISSLQPEDIATYYCQQYNIFPWTFGQGTKLEIK: 83.0
- v29450: humanized anti-NaPi2b IgG1/kappa antibody H3L3; VH SEQ ID NO:26, VL SEQ ID NO:30 (antibody, V domains shown, v29450, v29454, v29458 VH (H3); v29449, v29450, v29451, v29452 VL (L3)) VH: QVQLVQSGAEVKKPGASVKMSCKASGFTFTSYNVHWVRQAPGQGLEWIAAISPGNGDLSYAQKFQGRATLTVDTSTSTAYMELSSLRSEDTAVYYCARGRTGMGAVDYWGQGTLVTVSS VL: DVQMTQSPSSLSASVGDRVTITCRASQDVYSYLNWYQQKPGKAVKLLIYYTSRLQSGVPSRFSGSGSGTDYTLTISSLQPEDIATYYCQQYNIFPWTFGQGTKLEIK: 81.0
- v29456: humanized anti-NaPi2b IgG1/kappa antibody H1L2; VH SEQ ID NO:24, VL SEQ ID NO:29 (antibody, V domains shown, v29452, v29456, v29460 VH (H1); v29453, v29454, v29455, v29456 VL (L2)) VH: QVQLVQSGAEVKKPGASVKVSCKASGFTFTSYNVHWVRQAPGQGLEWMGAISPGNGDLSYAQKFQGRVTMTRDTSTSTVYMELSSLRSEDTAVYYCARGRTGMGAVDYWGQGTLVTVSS VL: DVQMTQSPSSLSASVGDRVTITCRASQDVYSYLNWYQQKPGKAVKLLIYYTSRLQSGVPSRFSGSGSGTDYTLTISSLQPEDFATYYCQQYNIFPWTFGQGTKLEIK: 77.9
- v29459: humanized anti-NaPi2b IgG1/kappa antibody H2L1; VH SEQ ID NO:25, VL SEQ ID NO:28 (antibody, V domains shown, v29451, v29455, v29459 VH (H2); v29457, v29458, v29459, v29460 VL (L1)) VH: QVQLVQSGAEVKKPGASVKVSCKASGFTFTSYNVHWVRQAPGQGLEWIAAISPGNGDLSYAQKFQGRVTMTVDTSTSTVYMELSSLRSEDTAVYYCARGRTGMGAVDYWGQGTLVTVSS VL: DIQMTQSPSSLSASVGDRVTITCRASQDVYSYLNWYQQKPGKAPKLLIYYTSRLQSGVPSRFSGSGSGTDFTLTISSLQPEDFATYYCQQYNIFPWTFGQGTKLEIK: 83.1
